AC50 values, listed per item
System: MYB mRNA
Assay: Splicing RT-qPCR assay, MYB canonical (CJ) and alternative (AJ) junction mRNA
Type: cell-based, human
Conditions: Homo sapiens, 24 h, A673 or K562 cells, 24 hours compound treatment, RT-qPCR; read-out: MYB AJ (AC50, increase in alternative junction mRNA)

molecule | measuredTarget | AC50
CCn1cc2c(N3CC[C@H](NC4CC4)C3)ccc(C(=O)Nc3cc(F)c4nc(C)cn4c3)c2n1 | MYB mRNA | 1000 to 10000 nM
Cc1cn2cc(NC(=O)c3ccc(N4CCNC[C@@H]4C)c4cn(C)nc34)cc(F)c2n1 | MYB mRNA | 100 to 1000 nM
Cc1cn2cc(NC(=O)c3ccc(N4CCNCC4)c4cn(CC(C)(C)O)nc34)cc(F)c2n1 | MYB mRNA | 1000 to 10000 nM
Cc1nc2c(F)cc(NC(=O)c3ccc(N4CCNCC4)c4cn(C)nc34)cc2s1 | MYB mRNA | 100 to 1000 nM
Cc1cn2cc(NC(=O)c3ccc(N4CCNCC4)c4c[nH]nc34)cc(Cl)c2n1 | MYB mRNA | 1000 to 10000 nM
Cc1cn2cc(NC(=O)c3ccc(N4C[C@H]5CC[C@@H](C4)N5)c4cc(C)oc34)cc(F)c2n1 | MYB mRNA | < 100 nM
CNC1CCN(c2ccc(C(=O)Nc3cn4cc(C)nc4c(OC)n3)c3nn(CCOC)cc23)C1 (stereo not shown) | MYB mRNA | 1000 to 10000 nM
CCn1cc2c(N3CC[C@](C)(NC)C3)ccc(C(=O)Nc3cc(F)c4nc(C)cn4c3)c2n1 | MYB mRNA | > 10000 nM
CC(=O)Cn1cc2c(N3CCNCC3)ccc(C(=O)Nc3cc(F)c4nc(C)cn4c3)c2n1 | MYB mRNA | 1000 to 10000 nM
Cc1cn2cc(NC(=O)c3ccc(N4CCNCC4)c4c(C)n(C)nc34)cc(F)c2n1 | MYB mRNA | 1000 to 10000 nM
Cc1cn2cc(NC(=O)c3ccc(N4CCNCC4)c4nn(C)nc34)cc(F)c2n1 | MYB mRNA | 100 to 1000 nM
CN[C@@H]1CCN(c2ccc(C(=O)Nc3cn4cc(C)nc4c(Oc4ccccc4)n3)c3nn(C)cc23)C1 | MYB mRNA | 100 to 1000 nM
Cc1nc2c(F)cc(NC(=O)c3ccc(N4CCNCC4)c4cn(C)nc34)cc2n1C | MYB mRNA | > 10000 nM
CCn1cc2c(N3CCC(NC4(CO)CC4)CC3)ccc(C(=O)Nc3cc(F)c4nc(C)cn4c3)c2n1 | MYB mRNA | 100 to 1000 nM
CCn1cc2c(N3C[C@@H](F)[C@H](NC)C3)ccc(C(=O)Nc3cc(F)c4nc(C)cn4c3)c2n1 | MYB mRNA | 100 to 1000 nM
CCn1cc2c(N3CCC(N[C@H]4C[C@H](O)C4)CC3)ccc(C(=O)Nc3cc(F)c4nc(C)cn4c3)c2n1 | MYB mRNA | 100 to 1000 nM

====

System: HTT mRNA
Experiment: Splicing RT-qPCR assay, HTT canonical (CJ) and alternative (AJ) junction mRNA
Assay type: cell-based, human
Settings: Homo sapiens, A673 or K562 cells, 24 hours compound treatment, read-out: HTT AJ (AC50, increase in alternative junction mRNA)

compoundStructureString | AC50
CCn1cc2c(N3CCN[C@H](C4CC4)C3)ccc(C(=O)Nc3cc(F)c4nc(C)cn4c3)c2n1 | 1 to 10 µM
CCn1cc2c(N3CCN[C@@H](C4CC4)C3)ccc(C(=O)Nc3cc(F)c4nc(C)cn4c3)c2n1 | > 10 µM
CCn1cc2c(N3CCN[C@@H](CO)C3)ccc(C(=O)Nc3cc(F)c4nc(C)cn4c3)c2n1 | 1 to 10 µM
Cc1cn2cc(-c3ccc(C(=O)NC4CCNCC4)c4nn(C)cc34)cc(F)c2n1 | 1 to 10 µM
